Source listed as ChEMBL document CHEMBL5500411.

# inhibition per record follows
# TARGET: Epidermal growth factor receptor (Homo sapiens)
# ASSAY_TEXT: Inhibition of wildtype EGFR (unknown origin) at 1 uM by kinase Glo assay relative to control
MEASUREMENT_NAME: inhibition (%)

SMILES_DATA | RESULT_VALUE
Nc1cccc(-c2c(-c3ccccc3)oc3ncnc(Oc4ccc(NC(=S)NC(=O)Cc5ccccc5)cc4)c23)c1 | 1
O=C(Nc1ccc(F)cc1)C1(C(=O)Nc2ccc(Oc3ncnc4oc(-c5ccccc5)c(-c5ccccc5)c34)cc2)CC1 | 3
O=C(Nc1ccc(F)cc1)C1(C(=O)Nc2ccc(Oc3ncnc4oc(-c5ccccc5)cc34)cc2)CC1 | 4
Nc1cccc(-c2c(-c3ccccc3)oc3ncnc(Oc4ccc(NC(=O)C5(C(=O)Nc6ccc(F)cc6)CC5)cc4)c23)c1 | 0
Nc1cccc(-c2c(-c3ccccc3)oc3ncnc(Nc4ccc(NC(=O)C5(C(=O)Nc6ccc(F)cc6)CC5)cc4)c23)c1 | 1
